Below, each entry is listed alongside its reported sensor-assay potency score (higher = more potent).
- assayed.target: MMP27
- test.details: pooled miR-30 sensor sort-seq; sequence = guide strand
- applied.conditions: shRNA
Respond numerically, and do not add a unit to the figure.

Worked set:
• TTAATTCAAACTCAACATCCGT = -0.367
• TATTCTTTGTCTTAATGTCGTA = -0.516
• TATTTCAAGAGAGTAGAACTGG = 0.764
• ATTCTTTGTCTTAATGTCGTAT = -0.054
• TAGGTTTTTCTTGTGGTCTTAT = -0.201

Shifting focus to the sequence that follows.
Sure, the documented sensor-assay potency score (higher = more potent) for TTTCTTGTGGTCTTATCACAGA is -0.677

---

- assayed.target: GPATCH3
- test.details: pooled miR-30 sensor sort-seq; sequence = guide strand
- applied.conditions: shRNA
Note to self: values exactly at -0.6 are label 1. So sensor-assay potency score (higher = more potent) at or above -0.6 is label 1, below is label 0.

Check this sequence for sensor-assay potency score (higher = more potent) at or above -0.6: TAAGCCTCTGAGCTTGAGCCAA
label 0

Check this sequence for sensor-assay potency score (higher = more potent) at or above -0.6: TGTACACACAAGCTCTTCCTGC
label 1

Check this sequence for sensor-assay potency score (higher = more potent) at or above -0.6: TTAGAGACCAAAGACAAGCGGT
label 1

Check this sequence for sensor-assay potency score (higher = more potent) at or above -0.6: TCTGTCATAGTACACACTCATG
label 0

Check this sequence for sensor-assay potency score (higher = more potent) at or above -0.6: TTCCGTGACGTCGCACACCCAA
label 0

Check this sequence for sensor-assay potency score (higher = more potent) at or above -0.6: TAAAACACCAGGCCAGAGCCAC
label 0

Check this sequence for sensor-assay potency score (higher = more potent) at or above -0.6: TAAAATAGCTCCGTAAATGGGC
label 1

---

- assayed.target: SLC9A5
- test.details: pooled miR-30 sensor sort-seq; sequence = guide strand
- applied.conditions: shRNA
Note to self: values exactly at -0.6 are label 1. So sensor-assay potency score (higher = more potent) at or above -0.6 is label 1, below is label 0.

Some solved cases for reference:
- TTGTCAAAGAACAGCCTGCTAG: label 0
- TTACTTTCCGAGACAGGTGAAA: label 0
- TTGAACTGGATGCACCAGTGGG: label 0
- TCTGTCTCTGAACTGTCGCTCT: label 1
- AAGTTGTCAAAGAACAGCCTGC: label 1

Check this sequence for sensor-assay potency score (higher = more potent) at or above -0.6: AAGGTCTAGACTTAGACCCAGA
label 0

---

Below, each entry is listed alongside its reported sensor-assay potency score (higher = more potent).
- assayed.target: KRT2
- test.details: pooled miR-30 sensor sort-seq; sequence = guide strand
- applied.conditions: shRNA
Respond numerically, and do not add a unit to the figure.

- TTTCAGAAACTCAATTTCCTGG: -0.272
- TTGCACATTCTTACACTGCTTC: 0.204
- TACACTGCTTCTTCACATGTGC: 0.0185
- TTGATCTCCGGCTTCCACCAGA: -0.146

Sure, the documented sensor-assay potency score (higher = more potent) for TATCTTGATCTCTTTCAGGCTG is 0.155

Sure, the documented sensor-assay potency score (higher = more potent) for TTTGATGAAATGGTGCTGCTTG is 0.566

Sure, the documented sensor-assay potency score (higher = more potent) for TAAACCTCCAACACCACCAGGG is 0.275

---

Below, each entry is listed alongside its reported sensor-assay potency score (higher = more potent).
- assayed.target: KCNB1
- test.details: pooled miR-30 sensor sort-seq; sequence = guide strand
- applied.conditions: shRNA

* TACTCGTTGTCGTCGAGGCTGT | -0.424

Sure, the documented sensor-assay potency score (higher = more potent) for TTGAACTTGGTGTCGTCCTCAT is 0.219

Sure, the documented sensor-assay potency score (higher = more potent) for TTTTCTCCGATCTTGTCCCCGT is -0.234

Sure, the documented sensor-assay potency score (higher = more potent) for TACATGTCTTCCAACTGCTGAA is -0.486

Sure, the documented sensor-assay potency score (higher = more potent) for TAGAAGTTGAGGATGGAGGTGA is 0.819

Sure, the documented sensor-assay potency score (higher = more potent) for TACTTTGTCTTTCTTACCCATA is -1.04

Sure, the documented sensor-assay potency score (higher = more potent) for TTCATCTGCTCTTTCTTCTGGT is 0.512

---

Below, each entry is listed alongside its reported sensor-assay potency score (higher = more potent).
- assayed.target: FGF1
- test.details: pooled miR-30 sensor sort-seq; sequence = guide strand
- applied.conditions: shRNA
Respond numerically, and do not add a unit to the figure.

Worked set:
- TAAACTTCTCGGTCAGGGCTGT: 0.184
- TAATGGTTCTCCTCCAGCCTTT: -0.798
- TAGTGAGTCCGAGGACCGCGTT: -1.55
- TTTCCAGGAACAAACATTCCTC: -0.373

Shifting focus to the sequence that follows.
Sure, the documented sensor-assay potency score (higher = more potent) for TTGCAGCTCCCATTCTTCTTGA is -1.07

---

- assayed.target: CDCA7L
- test.details: pooled miR-30 sensor sort-seq; sequence = guide strand
- applied.conditions: shRNA
Below, each entry is listed alongside its reported sensor-assay potency score (higher = more potent).
Respond numerically, and do not add a unit to the figure.

Worked set:
* TAGCCTTATCTTCTTCTTCATC | -1.31
* TTTTCTAAGTCCTCTTCGGTGA | 0.0411
* TTCGGTGATATCCTCCACTGGC | 0.00353

Shifting focus to the sequence that follows.
The value of sensor-assay potency score (higher = more potent) recorded for AAACTCTTCATCATCACTGGGG when tested on CDCA7L reads 0.515

---

- assayed.target: SPATA5L1
- test.details: pooled miR-30 sensor sort-seq; sequence = guide strand
- applied.conditions: shRNA
quantity: sensor-assay potency score (higher = more potent)
Respond numerically, and do not add a unit to the figure.

Worked set:
- TTGTCTTAAGTCCAACACCATC: -1.76
- TTCTGAATCTCCAACAAACGGT: -0.635
- TTATCTAATCTTCCAGGTCGTA: -0.899
- TGATCTTATCTAATCTTCCAGG: -0.767
- TAGATGATCTTATCTAATCTTC: -0.209

Sure, the documented sensor-assay potency score (higher = more potent) for AAAAACTTCTTGAAACTCCTGT is 1.07

Sure, the documented sensor-assay potency score (higher = more potent) for TATCTAATCTTCCAGGTCGTAA is -0.994

Sure, the documented sensor-assay potency score (higher = more potent) for TAATCTTCCAGGTCGTAACAAA is -1.18

---

- assayed.target: PDE1C
- test.details: pooled miR-30 sensor sort-seq; sequence = guide strand
- applied.conditions: shRNA
quantity: sensor-assay potency score (higher = more potent)
Respond numerically, and do not add a unit to the figure.

Sure, the documented sensor-assay potency score (higher = more potent) for TGAACGATGCTCTTGAACCGGG is -0.343

Sure, the documented sensor-assay potency score (higher = more potent) for TTTTGTGCTTGCTGTATCCCAC is -0.201

Sure, the documented sensor-assay potency score (higher = more potent) for TTTTCCTCTGCTTCCTTCTTGG is -0.143

Sure, the documented sensor-assay potency score (higher = more potent) for TAAGATCTACCACTGAAGCTTC is -0.318

Sure, the documented sensor-assay potency score (higher = more potent) for TTTGAAGTCACCATTCTGTTGC is 0.443

Sure, the documented sensor-assay potency score (higher = more potent) for TAGAGTGATCCTTCTTGTCTGT is 0.0178

---

- assayed.target: SEC62
- test.details: pooled miR-30 sensor sort-seq; sequence = guide strand
- applied.conditions: shRNA
Below, each entry is listed alongside its reported sensor-assay potency score (higher = more potent).
Respond numerically, and do not add a unit to the figure.

Worked set:
• TTGTTGGACAGTTGAATCGAAG = -1.44
• TTATGTACAGAATACACTTTAC = -1.09
• TAGTCAACCACAGACTCCCTGG = -0.485
• TATGTCTTTATCATATTTCATT = -1.38
• TTCTATAAAATGAAGGACCGAA = -0.0759
• TAAAGCTTCCTCTCCTTTCTTG = 0.192

Sure, the documented sensor-assay potency score (higher = more potent) for TAAATAAAGCTTCCTCTCCTTT is -0.505

Sure, the documented sensor-assay potency score (higher = more potent) for TTTGTTGGACAGTTGAATCGAA is 0.088

Sure, the documented sensor-assay potency score (higher = more potent) for TGACTTTTCCTCACTGTCGGAC is -0.575

Sure, the documented sensor-assay potency score (higher = more potent) for TTTAAGTCTGCTTTTGGTCCTT is 0.441

Sure, the documented sensor-assay potency score (higher = more potent) for TTCAATATGGTAATCAGCCAAC is -1.13

Sure, the documented sensor-assay potency score (higher = more potent) for TCCATTTCCACTACTGTGCTGG is -0.484

Origin of the recorded values: the OligoGym collection
